- TEST TARGET: Serine/threonine-protein kinase PAK 4 (Homo sapiens)
- PROCEDURE DETAILS: Inhibition of PAK4 (unknown origin) using substrate S2 after 60 mins by HTRF assay
- MEASUREMENT SETUP: read-out: IC50
READOUT NAME: IC50
Respond with a number, then the unit of measure.

ITEM SMILES: O=C1Nc2ccc(C(=O)N[C@H](CO)c3ccccc3)cc2/C1=C/c1ccc[nH]1
IC50: 22 nM
--
ITEM SMILES: O=C1Nc2ccc(C(=O)N[C@H](CO)c3ccc(F)cc3)cc2/C1=C/c1ccc[nH]1
IC50: 54 nM
--
ITEM SMILES: O=C1Nc2ccc(C(=O)N[C@@H](CO)c3ccccc3)cc2/C1=C/c1ccc[nH]1
IC50: 3380 nM

We now examine a further molecule.
For this molecule ( `CC(C)(C)[C@@H](CO)NC(=O)c1ccc2c(c1)/C(=C/c1ccc[nH]1)C(=O)N2` ), measured IC50 is 634 nM

---

- TEST TARGET: Serine/threonine-protein kinase PAK 4 (Homo sapiens)
- PROCEDURE DETAILS: Inhibition of PAK4 (unknown origin) using substrate S2 after 60 mins by HTRF assay
- MEASUREMENT SETUP: read-out: IC50
READOUT NAME: IC50
Express the reported value numerically, then name its unit.

Here's what some known entries look like.
COMPOUND: O=C1Nc2ccc(C(=O)N[C@H](CCO)c3ccccc3)cc2/C1=C/c1ccc[nH]1
IC50: 5010 nM
//
COMPOUND: O=C1Nc2cc(Cl)c(C(=O)N[C@H](CO)c3ccccc3)cc2/C1=C/c1ccc[nH]1
IC50: 1420 nM
//
COMPOUND: O=C1Nc2ccc(C(=O)N[C@H](CO)c3ccccc3)cc2/C1=C/c1ccco1 (stereo in doubt)
IC50: 802 nM
//
COMPOUND: O=C1Nc2ccc(C(=O)N[C@H](CO)c3ccccc3)cc2/C1=C/c1cccs1
IC50: 1290 nM

Alright, here's another compound for you.
So the reported IC50 for `CC(C)[C@@H](CO)NC(=O)c1ccc2c(c1)/C(=C/c1ccc[nH]1)C(=O)N2` , on Serine/threonine-protein kinase PAK 4 (Homo sapiens), turned out to be 2350 nM

---

- TEST TARGET: Serine/threonine-protein kinase PAK 4 (Homo sapiens, UniProt O96013)
- Sequence (O96013 whole entry): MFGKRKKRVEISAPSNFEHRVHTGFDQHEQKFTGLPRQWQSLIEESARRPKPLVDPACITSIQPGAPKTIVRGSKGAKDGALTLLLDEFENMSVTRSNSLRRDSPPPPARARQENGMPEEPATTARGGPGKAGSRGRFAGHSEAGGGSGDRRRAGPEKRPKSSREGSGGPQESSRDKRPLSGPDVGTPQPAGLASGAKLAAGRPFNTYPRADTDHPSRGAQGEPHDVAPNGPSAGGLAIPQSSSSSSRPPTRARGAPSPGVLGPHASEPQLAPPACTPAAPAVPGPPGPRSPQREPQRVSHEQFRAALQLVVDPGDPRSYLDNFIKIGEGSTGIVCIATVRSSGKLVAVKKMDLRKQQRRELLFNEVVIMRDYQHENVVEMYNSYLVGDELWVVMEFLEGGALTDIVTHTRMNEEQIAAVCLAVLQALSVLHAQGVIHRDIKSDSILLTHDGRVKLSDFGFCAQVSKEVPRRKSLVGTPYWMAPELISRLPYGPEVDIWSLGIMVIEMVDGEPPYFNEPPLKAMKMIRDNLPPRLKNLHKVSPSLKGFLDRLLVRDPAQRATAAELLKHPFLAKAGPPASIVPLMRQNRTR
- PROCEDURE DETAILS: Inhibition of PAK4 (unknown origin) using substrate S2 after 60 mins by HTRF assay
- MEASUREMENT SETUP: read-out: IC50
READOUT NAME: pIC50
Bear in mind: pIC50 is minus log10 of a mol/L concentration; give just that figure.

The molecule identified as `O=C1Nc2ccc(C(=O)N[C@H](CO)c3ccc(Cl)cc3)cc2/C1=C/c1ccc[nH]1` registered its pIC50 at 6.41

The reported value for `O=C1Nc2cc(Br)c(C(=O)N[C@H](CO)c3ccccc3)cc2/C1=C/c1ccc[nH]1` in terms of pIC50 is 5.92

So, `Cn1nccc1-c1cc2c(cc1C(=O)N[C@H](CO)c1ccccc1)/C(=C/c1ccc[nH]1)C(=O)N2` ? Its pIC50 was 5.84

Per the record, `O=C1Nc2cc(F)c(C(=O)N[C@H](CO)c3ccccc3)cc2/C1=C/c1ccc[nH]1` has pIC50 of 6.14

Please fill in: pIC50 reported for `O=C1Nc2ccc(C(=O)NCCO)cc2/C1=C/c1ccc[nH]1` = 5.90

Kindly note the recorded pIC50 for `O=C1Nc2ccc(C(=O)N[C@H](CO)c3ccccc3Cl)cc2/C1=C/c1ccc[nH]1` , which is 6.70

# pIC50 (molecule: `O=C1Nc2ccc(C(=O)N[C@H](CO)c3ccccc3)cc2/C1=C/c1ccn[nH]1` ) is 6.42

Value of pIC50 reported for the molecule `N#Cc1cc2c(cc1C(=O)N[C@H](CO)c1ccccc1)/C(=C/c1ccc[nH]1)C(=O)N2` is 5.81

So for `Cc1cc(C)c(/C=C2\C(=O)Nc3ccc(C(=O)N[C@H](CO)c4ccccc4)cc32)[nH]1` , the logged pIC50 turned out to be 7.57

---

Let's look at some molecules and their measured IC50.
- TEST TARGET: Serine/threonine-protein kinase PAK 4 (Homo sapiens)
- PROCEDURE DETAILS: Inhibition of PAK4 (unknown origin) using substrate S2 after 60 mins by HTRF assay
- MEASUREMENT SETUP: read-out: IC50

Recorded results for 4 molecules are shown here.
ITEM SMILES: O=C1Nc2ccc(C(=O)NCCCO)cc2/C1=C/c1ccc[nH]1
RESULT: 3150 nM
--
ITEM SMILES: O=C1Nc2ccc(C(=O)N[C@H](CO)Cc3ccccc3)cc2/C1=C/c1ccc[nH]1
RESULT: 304 nM
--
ITEM SMILES: O=C1Nc2ccc(C(=O)N[C@H](CO)c3ccccc3)cc2C1=Cc1ccccn1
RESULT: > 10000 nM
--
ITEM SMILES: Cn1cc(-c2cc3c(cc2C(=O)N[C@H](CO)c2ccccc2)/C(=C/c2ccc[nH]2)C(=O)N3)cn1
RESULT: 1990 nM

Entry `O=C1Nc2ccc(C(=O)N[C@H](CO)c3ccccc3)cc2/C1=C/c1ncc[nH]1` , IC50 reported as 281 nM
